Cited source for all entries: the supplement of paper PMC9170038

Tested on: MS2 coat protein
Experiment: apparent KD of MS2 coat protein; designed switch direction (-1 OFF switch, 1 ON switch): 1; higher = weaker reporter binding
Conditions: input ligand: microRNA oligo, concentration not stated
A collection of sequences and their measured apparent KD of MS2 coat protein
Measurement Type: apparent KD of MS2 coat protein (nM)

>>> observed_result("ACUCUCACAGUAGGAUAUGUAGGAUAUGCCUACAUGAGGAUCACCCAUGUAAACAUGGCAGAAGGACAGAAGGACUUACAUUGG [pwkr ssNG2 2FMN + 1F5.2] (Eterna round: R96, puzzle: Same State NG 2)")
197
>>> observed_result("AUACUCAUGUAAGGAUAUGCAGCCGAAACGGCUGCAGAAGGUACUAUAAUACAUGAGGAUCACCCAUGUCUCUAUUAUUUAGUU [Mat - Same State NG 1 - JL mod - D98] (Eterna round: R96, puzzle: Same State NG 1)")
46.5
>>> observed_result("ACAUGAGACUGAGGAUAUGUUGUACCUACAUGUGACAUGAGGAUCACCCAUGUGGUAAGUAUGAUACAGAAGGCAGAGAUAUGU [Equivalance 63 - Jieux - Same State NG 2] (Eterna round: R96, puzzle: Same State NG 2)")
14.5
>>> observed_result("CGGUGAGAGACAGGAUAUCGAGCCUAACGAGGCCGAGAAGGGUCGCCCGAAGCGACCGACAUGAGGAUCACCCAUGUAGAAAGA [Eternabot solution 21] (Eterna round: R96, puzzle: Same State NG 1)")
30
